Parameter: pEC50. Scope: all listed entries.
# target_under_test: human Chemokine like receptor 1 (Homo sapiens, UniProt Q99788)
# Construct: host or cells: U2OS (Tango CMKLR1-bla U2OS)
# Sequence (Q99788 whole entry): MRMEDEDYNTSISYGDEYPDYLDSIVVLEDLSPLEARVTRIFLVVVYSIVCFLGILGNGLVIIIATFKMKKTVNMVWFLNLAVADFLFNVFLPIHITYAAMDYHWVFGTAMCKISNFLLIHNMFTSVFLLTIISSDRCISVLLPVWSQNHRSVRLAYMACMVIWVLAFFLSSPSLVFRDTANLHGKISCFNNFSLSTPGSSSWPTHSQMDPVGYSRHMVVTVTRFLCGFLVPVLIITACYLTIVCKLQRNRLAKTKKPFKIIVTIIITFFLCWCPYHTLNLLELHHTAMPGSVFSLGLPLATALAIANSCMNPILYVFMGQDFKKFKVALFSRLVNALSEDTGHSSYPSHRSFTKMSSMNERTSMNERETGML
# procedure_details: Activation of Tango CMKLR1-bla U2OS cells (beta-lactamase FRET reporter)
# Type: cell-based
pEC50: −log10 of the molar value. Square brackets hold non-standard residues; d marks the D form. Peptide text beside a SMILES is read from it. 1Nal = N[C@@H](Cc1cccc2ccccc12)C(=O)O; 2Nal = N[C@@H](Cc1ccc2ccccc2c1)C(=O)O; Tic = O=C(O)[C@@H]1Cc2ccccc2CN1; NMeL = CN[C@@H](CC(C)C)C(=O)O; Pip = O=C(O)[C@@H]1CCCCN1; Nva = CCC[C@H](N)C(=O)O

{"molecule": "CC(C)C[C@@H](C(=O)N1CCC[C@H]1C(=O)N[C@H](CO)C(=O)N[C@@H](CCC(N)=O)C(=O)N[C@@H](Cc1ccccc1)C(=O)N[C@H](C)C(=O)N1Cc2ccccc2C[C@H]1C(=O)N[C@@H](CO)C(=O)O)N(C)C(=O)[C@H](Cc1cccc2ccccc12)NC(=O)[C@H](N)Cc1ccc(O)cc1 [YW-199] (H-[dY][1Nal][NMeL]P[dS]QF[dA][Tic]S-OH)", "target_under_test": "human Chemokine like receptor 1 (Homo sapiens, UniProt Q99788)", "pEC50": 8.54}
{"molecule": "CC(C)C[C@@H](C(=O)N1CCC[C@H]1C(=O)N[C@H](CO)C(=O)N[C@@H](CCC(N)=O)C(=O)N[C@@H](Cc1cccc2ccccc12)C(=O)N[C@H](C)C(=O)N1Cc2ccccc2C[C@H]1C(=O)N[C@@H](CO)C(=O)O)N(C)C(=O)[C@H](Cc1ccccc1)NC(=O)[C@H](N)Cc1ccc(O)cc1 [YW-165] (H-[dY]F[NMeL]P[dS]Q[1Nal][dA][Tic]S-OH)", "target_under_test": "human Chemokine like receptor 1 (Homo sapiens, UniProt Q99788)", "pEC50": 8.82}
{"molecule": "CC(C)C[C@H](NC(=O)[C@H](Cc1ccccc1)NC(=O)[C@H](N)Cc1ccc(O)cc1)C(=O)N1CCC[C@H]1C(=O)N[C@H](CO)C(=O)N[C@@H](CCC(N)=O)C(=O)N[C@@H](Cc1cccc2ccccc12)C(=O)N[C@H](C)C(=O)N1Cc2ccccc2C[C@H]1C(=O)N[C@@H](CO)C(=O)O [YW-117] (H-[dY]FLP[dS]Q[1Nal][dA][Tic]S-OH)", "target_under_test": "human Chemokine like receptor 1 (Homo sapiens, UniProt Q99788)", "pEC50": 8.41}
{"molecule": "CC(C)C[C@@H](C(=O)N1CCC[C@H]1C(=O)N[C@H](CO)C(=O)N[C@@H](CCC(N)=O)C(=O)N[C@@H](Cc1ccccc1)C(=O)N[C@H](C)C(=O)N1Cc2ccccc2C[C@H]1C(=O)N[C@@H](CO)C(=O)O)N(C)C(=O)[C@H](Cc1ccc2ccccc2c1)NC(=O)[C@H](N)Cc1ccc(O)cc1 [YW-200] (H-[dY][2Nal][NMeL]P[dS]QF[dA][Tic]S-OH)", "target_under_test": "human Chemokine like receptor 1 (Homo sapiens, UniProt Q99788)", "pEC50": 7.72}
{"molecule": "CCC[C@H](NC(=O)[C@H](Cc1ccccc1)NC(=O)[C@H](N)Cc1ccc(O)cc1)C(=O)N1CCC[C@H]1C(=O)N[C@H](CO)C(=O)N[C@@H](CCC(N)=O)C(=O)N[C@@H](Cc1ccccc1)C(=O)N[C@H](C)C(=O)N1Cc2ccccc2C[C@H]1C(=O)N[C@@H](CO)C(=O)O [YW-196] (H-[dY]F[Nva]P[dS]QF[dA][Tic]S-OH)", "target_under_test": "human Chemokine like receptor 1 (Homo sapiens, UniProt Q99788)", "pEC50": 7.41}
{"molecule": "CC(C)C[C@H](NC(=O)[C@H](Cc1ccccc1)NC(=O)[C@H](N)Cc1ccc(O)cc1)C(=O)N1CCCC[C@H]1C(=O)N[C@H](CO)C(=O)N[C@@H](CCC(N)=O)C(=O)N[C@@H](Cc1ccccc1)C(=O)N[C@H](C)C(=O)N1Cc2ccccc2C[C@H]1C(=O)N[C@@H](CO)C(=O)O [YW-96] (H-[dY]FL[Pip][dS]QF[dA][Tic]S-OH; N-terminus assumed)", "target_under_test": "human Chemokine like receptor 1 (Homo sapiens, UniProt Q99788)", "pEC50": 7.41}
